# Assay: Stability of the compound in pH 2.8 buffer assessed as parent compound remaining measured after 24 hrs at 100 degC
# Assay type: physicochemical
# Details: read-out: Stability
Measure Name: remaining at 24 h

1. Cc1noc(C)c1Cn1cc(N2C(=O)[C@H](C)N(Cc3cccc(O)c3)C2=O)cn1 :: > 99%
2. Cc1noc(C)c1Cn1cc(N2C(=O)c3ccccc3C2=O)cn1 :: 3%
3. Cc1noc(C)c1Cn1cc(N2C(=O)N(Cc3cccc(O)c3)C(C)(CO)C2=O)cn1 (stereo not given) :: > 99%

Below is a list of molecules. For each, state its recorded remaining at 24 h.
1. Cc1noc(C)c1Cn1cc(N2C(=O)N(Cc3cccc(O)c3)C3(CC3)C2=O)cn1
2. Cc1noc(C)c1Cn1cc(N2C(=O)[C@@H](C)N(Cc3cccc(O)c3)C2=O)cn1
3. Cc1noc(C)c1Cn1cc(N2C(=O)N(Cc3cccc(O)c3)C3(CCC3)C2=O)cn1
4. Cc1noc(C)c1Cn1cc(N2C(=O)N(Cc3cccc(O)c3)C(C)(C)C2=O)cn1
5. Cc1noc(C)c1Cn1cc(N2C(=O)CN(Cc3cccc(O)c3)C2=O)cn1

Response:
["> 99%", "> 99%", "97%", "> 99%", "> 99%"]

Below is a list of molecules. For each, state its recorded remaining at 24 h.
1. Cc1noc(C)c1Cn1cc(N2C(=O)[C@H](CO)N(Cc3cccc(O)c3)C2=O)cn1
2. Cc1noc(C)c1Cn1cc(N2C(=O)CN(Cc3ccccc3)C2=O)cn1

Response:
["53%", "> 99%"]

---

# Experimental Target: Taste receptor type 2 member 1 (Homo sapiens, UniProt Q9NYW7)
# Sequence (Q9NYW7 whole entry): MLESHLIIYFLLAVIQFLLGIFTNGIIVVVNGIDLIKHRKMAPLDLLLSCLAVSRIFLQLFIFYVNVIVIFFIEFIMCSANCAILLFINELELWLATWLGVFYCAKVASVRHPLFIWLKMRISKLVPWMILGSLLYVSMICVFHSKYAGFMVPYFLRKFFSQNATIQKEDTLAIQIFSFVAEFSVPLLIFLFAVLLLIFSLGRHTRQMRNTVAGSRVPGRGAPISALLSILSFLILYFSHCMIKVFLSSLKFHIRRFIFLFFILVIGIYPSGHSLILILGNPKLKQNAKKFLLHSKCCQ
# Assay: Agonist activity at TAS2R1 (unknown origin) by stably expressed cell-based assay
Measure Name: EC50 (µM)
Give bare numbers, in µM.

Prompt: Data request, read-out EC50, for Cc1noc(C)c1Cn1cc(N2C(=O)CN(Cc3cccc(O)c3)C2=O)cn1
Response: 150

---

# Assay: Stability of the compound in pH 2.8 buffer assessed as parent compound remaining measured after 24 hrs at room temperature
# Type: physicochemical
# Details: read-out: Stability
Measure Name: remaining at 24 h

Prompt: Data request, read-out remaining at 24 h, for Cc1noc(C)c1Cn1cc(N2C(=O)CN(Cc3cccc(O)c3)C2=O)cn1
Response: > 99%

---

# Assay: Stability of the compound in pH 9.3 buffer assessed as parent compound remaining measured after 24 hrs at room temperature
# Format: physicochemical
# Details: read-out: Stability
Measure Name: remaining at 24 h (%)
Numbers only, in %.

Prompt: Data request, read-out remaining at 24 h, for Cc1noc(C)c1Cn1cc(N2C(=O)CN(Cc3cccc(O)c3)C2=O)cn1
Response: 20

The measurements presented in this section are drawn from ChEMBL document CHEMBL4342523.
